tested on: Escherichia coli; experiment: Evaluated for its antibacterial activity against Escherichia coli UC 6674; assay type: functional
measurement.type: MIC

Task: Using the record for CC(=O)CC(=O)N(CCc1cccc(C(F)(F)F)c1)c1cccc2ccccc12 , report its MIC.
Output: > 128 µg/mL

Task: Using the record for FC(F)(F)c1cccc(CCNc2ccc3ccccc3c2)c1 , report its MIC.
Output: > 128 µg/mL

Task: Using the record for O=C(CC(=O)C(F)(F)F)N(CCc1cccc(C(F)(F)F)c1)c1cccc2ccccc12 , report its MIC.
Output: > 128 µg/mL

Task: Using the record for O=C(CO)N(CCc1cccc(C(F)(F)F)c1)c1cccc2ccccc12 , report its MIC.
Output: > 128 µg/mL

Task: Using the record for CO/N=C(\C(=O)N[C@@H]1C(=O)N2C(C(=O)O)=C(COC(C)=O)CS[C@H]12)c1csc(N)n1 [CEFOTAXIME] , report its MIC.
Output: 0.06 µg/mL
